The origin of these recorded values is paper PMC4207771.

tested.target: Olfr31 (Mus musculus)
Construct: expressed in transfected cells; host or cells: HEK293T, co-transfected with RTP1S
Sequence (Q3KPA7 1-317): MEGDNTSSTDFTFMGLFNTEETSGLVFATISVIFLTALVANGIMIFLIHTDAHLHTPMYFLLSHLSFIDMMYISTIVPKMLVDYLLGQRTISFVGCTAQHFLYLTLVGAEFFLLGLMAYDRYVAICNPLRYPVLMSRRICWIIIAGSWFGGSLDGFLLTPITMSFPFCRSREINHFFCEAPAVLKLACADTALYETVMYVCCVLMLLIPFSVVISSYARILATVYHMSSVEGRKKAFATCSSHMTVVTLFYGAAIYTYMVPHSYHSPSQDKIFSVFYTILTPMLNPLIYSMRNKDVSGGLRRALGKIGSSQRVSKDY
protocol.details: dual-luciferase (cAMP/CREB reporter) ligand screen, Olfr31 in HEK293T cells
Assay type: cell-based
experimental.parameters: chemicals tested individually, screened at 500uM (* also at 100uM)
readout.type: Olfr31 response in dual-luciferase assay

Solved cases (8 shown):
In [3]: df
Out[3]:
                                   molecule                              readout_type  result
0         CCOC(=O)c1ccccc1 [ethyl benzoate]  Olfr31 response in dual-luciferase assay       -
1                OC1CCCCCC1 [cycloheptanol]  Olfr31 response in dual-luciferase assay       -
2  Fc1ccc(F)c(F)c1 [1,2,4 trifluorobenzene]  Olfr31 response in dual-luciferase assay       -
3  C=CC(C)(O)CCC=C(C)CCC=C(C)C (mixture of isomers) [nerolidol]  Olfr31 response in dual-luciferase assay       -
4          CCCCCOC(=O)CCCCC [Amylhexanoate]  Olfr31 response in dual-luciferase assay       -
5                     CCC(=O)O [propionate]  Olfr31 response in dual-luciferase assay       -
6  C=CC(C)(O)CCC=C(C)C (stereo not shown) [linalool]  Olfr31 response in dual-luciferase assay       -
7  CCCCCC(C)O (stereo not shown) [2-Heptanol]  Olfr31 response in dual-luciferase assay       -

For each listed entry, give its Olfr31 response in dual-luciferase assay.
1. C=CCCC(=O)O [4-pentenoic acid]
2. CC(C)=CCC/C(C)=C/CO [Geraniol]
3. C[N+](C)(C)[O-] [Trimethylamine N-oxide]
4. CC(=O)O [acetic acid]
5. CC(O)C(C)O (stereo not shown) [2,3-butanediol]

Response line:
1. -
2. -
3. -
4. -
5. -

---

tested.target: Olfr691 (Mus musculus)
Construct: Lucy (N)
protocol.details: dual-luciferase (cAMP/CREB reporter) ligand screen, Olfr691 in HEK293T cells
experimental.parameters: Olfr691 co-expressed with RTP1S in HEK293T cells; 10 µM to 7.5 mM
I'd appreciate it if you could supply pEC50 values for the items below.
Numbers only, as −log10 of the molar value.

                                   molecule           tested_target  measured_number
0  CCCC(CCC)C(=O)O [valproate, reference compound]  Olfr691 (Mus musculus)             3.32

For each listed entry, give its pEC50.
1. C=CCCC(=O)O
2. CC(C)C(=O)O [isobutyrate]
3. CCCCC(=O)O [valerate]

Response line:
1: 3.05; 2: 2.95; 3: 3.07

---

tested.target: Olfr691 (Mus musculus)
Construct: Lucy (N); expressed in transfected cells; host or cells: HEK293T, co-transfected with RTP1S
Sequence (Q8VGW5 1-322): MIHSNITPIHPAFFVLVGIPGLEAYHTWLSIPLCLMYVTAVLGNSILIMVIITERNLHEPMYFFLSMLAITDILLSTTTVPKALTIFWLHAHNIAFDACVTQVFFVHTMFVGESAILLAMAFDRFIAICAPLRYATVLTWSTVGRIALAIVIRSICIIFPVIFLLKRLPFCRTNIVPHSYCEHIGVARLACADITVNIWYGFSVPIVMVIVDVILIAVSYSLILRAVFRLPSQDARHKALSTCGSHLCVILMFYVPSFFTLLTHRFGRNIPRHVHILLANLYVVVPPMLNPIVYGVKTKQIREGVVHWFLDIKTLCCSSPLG
protocol.details: dual-luciferase (cAMP/CREB reporter) ligand screen, Olfr691 in HEK293T cells
Assay type: cell-based
experimental.parameters: chemicals tested individually, screened at 500uM (* also at 100uM)
readout.type: Olfr691 response in dual-luciferase assay

                                   compound  result
0                            O=C1CCC(=O)CC1       -
1  CC(C)C(=O)OCCc1ccccc1 [phenyl ethyl isobutyrate]       -
2   CC12CCC(CC1=O)C2(C)C (stereo not drawn)       -
3                    CCCCCC(=O)O [caproate]       +
4  C=C(C)[C@@H]1CC[C@@H](C)C(=O)C1 [(+)Dihydrocarvone]       -

For each listed entry, give its Olfr691 response in dual-luciferase assay.
1. CC1(C)C2CCC(=O)C1C2 (stereo not drawn)
2. C=CC(C)(O)CCC=C(C)C (stereo not drawn)
3. CC(C)C=O
4. CC(=O)c1c(C)c([N+](=O)[O-])c(C(C)(C)C)c([N+](=O)[O-])c1C
5. O=C(O)CCC(=O)O [Succinate]
6. O=C1CC2CC[C@H]1C2
7. CCCCCCCCO

Response line:
["-", "-", "-", "-", "-", "-", "-"]
